Target: Cytochrome P450 1A2 (Homo sapiens)
Experiment: Cytochrome panel assay with activity outcomes
Settings: recombinant CYP, pro-luciferin dealkylation, luminescence, p450-cyp1a2; series mostly up to 57.1 µM
Hit rate of the full screen: of about 16,000 compounds, about 5,700 (36%) were called active. Inconclusive results (about 24%) are left out. The call rests on the fitted dose curve; in most records, active means well fitted curve in the direction sought with a large enough effect; inconclusive means small, poorly fitted or top-dose-only effect, or effect the other way; inactive means no such curve, though single readings can be large or run the other way. The list shows a part of the results.
Form entry, call: pick from 1.0 for active, 0.0 for inactive

Look over these answered cases.
[
  {
    "Compound": "Cc1ccccc1/C=N\\NC(=O)c1csnn1",
    "Discrete Label": 1.0
  },
  {
    "Compound": "CC(O)CN(CCC(N)=O)CCC(N)=O (centres undefined)",
    "Discrete Label": 0.0
  },
  {
    "Compound": "O=C(c1csnn1)N1CCC2(CC1)CN(c1ccccc1)C2",
    "Discrete Label": 0.0
  },
  {
    "Compound": "Nc1ccc(Nc2ccccc2)cc1",
    "Discrete Label": 1.0
  },
  {
    "Compound": "NC(=O)N1c2ccccc2C=Cc2ccccc21",
    "Discrete Label": 0.0
  }
]

q: Write down the call the test reported for this compound. Item: `COc1ccccc1-c1nc(N2CCOCC2)c2ccccc2n1`
a: 1.0

q: Write down the call the test reported for this compound. Item: `OC(CCCN1CCCCC1)(c1ccccc1)c1ccccc1`
a: 0.0

q: Write down the call the test reported for this compound. Item: `COCCn1c(Cc2ccccc2)nnc1SCc1nc2ccccc2c(=O)[nH]1`
a: 0.0

q: Write down the call the test reported for this compound. Item: `O=C(Nc1ccccc1)N1CCC2(CC1)CCN(C(=O)c1csnn1)CC2`
a: 0.0

Where do these numbers come from? They come from PubChem BioAssay AID1851.
